Parameter: inhibition. Scope: all listed entries.
PROCEDURE TEXT: PAX8 transcriptional activity inhibition in RMG-I – RMG-I cells, luciferase, single concentration, primary screen (AID 652154);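 further: luciferase light reporting Pax8 driven TPO promoter activity; plate controls were median of neutral control wells for no effect and mitoxantrone controls for full effect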
SETTINGS: RMG-I TPO-luciferase reporter, SteadyGlo, 24 h; at 12.6 µM; active compounds read high
The campaign covered roughly 360,000 compounds. About 4,200 (1.2%) were called active. The list comes from a sample in which actives are over-represented; it also holds close analogues and randomly drawn compounds.
READOUT NAME: inhibition (%)

- MOL: "COc1ccc(CN(C)C[C@@H]2OCCCC[C@@H](C)Oc3ccc(NC(=O)Nc4ccc(C(F)(F)F)cc4)cc3C(=O)N([C@H](C)CO)C[C@H]2C)cc1"
  READOUT NAME: "inhibition"
  REPORTED: -16.7
- MOL: "C[C@H](CO)N1C[C@H](C)[C@@H](CN(C)Cc2ccc3c(c2)OCO3)OCCCC[C@H](C)Oc2ccc(NC(=O)Nc3ccc(C(F)(F)F)cc3)cc2C1=O"
  READOUT NAME: "inhibition"
  REPORTED: 36.6
- MOL: "COCC(=O)N(C[C@H]1N[C@H](CO)[C@H]1c1ccc(C2=CCCCC2)cc1)C(C)C"
  READOUT NAME: "inhibition"
  REPORTED: 2.09
- MOL: "COc1ccc(NC(=O)Nc2ccc3c(c2)C(=O)N([C@@H](C)CO)C[C@H](C)[C@H](CN(C)Cc2ccc(C(F)(F)F)cc2)OCCCC[C@H](C)O3)cc1"
  READOUT NAME: "inhibition"
  REPORTED: 71.6
- MOL: "C[C@@H]1CN([C@H](C)CO)C(=O)c2cc(NC(=O)Nc3ccccc3)ccc2O[C@@H](C)CCCCO[C@H]1CN(C)Cc1ccc(C(F)(F)F)cc1"
  READOUT NAME: "inhibition"
  REPORTED: 77.3
- MOL: "C[C@H](CO)N1C[C@H](C)[C@H](CN(C)C)Oc2c(NS(=O)(=O)c3ccc(Cl)cc3)cccc2C1=O"
  READOUT NAME: "inhibition"
  REPORTED: -6.01
- MOL: "COc1ccccc1-c1cn(CC[C@H]2CC[C@@H](NC(=O)Cc3ccccn3)[C@@H](CO)O2)nn1"
  READOUT NAME: "inhibition"
  REPORTED: -1.82

====

PROCEDURE TEXT: PAX8 transcriptional activity inhibition in RMG-I – RMG-I cells, luciferase, single concentration, primary screen (AID 652154);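 further: luciferase light reporting Pax8 driven TPO promoter activity; plate controls were median of neutral control wells for no effect and mitoxantrone controls for full effect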
SETTINGS: RMG-I TPO-luciferase reporter, SteadyGlo, 24 h; at 12.6 µM; active compounds read high
The whole screen tested about 360,000 compounds, of which about 4,200 (1.2%) were called active. The list comes from a sample in which actives are over-represented; it also holds close analogues and randomly drawn compounds.

- MOL: "CN(Cc1ccc(F)cc1)C(=O)CN1C(=O)c2ccccc2S1(=O)=O"
  MEASUREMENT UNIT: "%"
  inhibition: -2.85
- MOL: "CN(Cc1cccs1)C(=O)CN1C(=O)c2ccccc2S1(=O)=O"
  MEASUREMENT UNIT: "%"
  inhibition: -105
- MOL: "CSc1nc(-c2ccccc2)nc(C(Cl)Cl)n1"
  MEASUREMENT UNIT: "%"
  inhibition: 99.3
- MOL: "Cc1sc2ccccc2c1CNC[C@H]1O[C@@H](n2ccc(=O)[nH]c2=O)[C@H](O)[C@@H]1O"
  MEASUREMENT UNIT: "%"
  inhibition: 3.61
- MOL: "CO[C@H]1CN(C)C(=O)c2ccc(NS(=O)(=O)c3cn(C)cn3)cc2OC[C@@H](C)N(CC2CC2)C[C@H]1C"
  MEASUREMENT UNIT: "%"
  inhibition: -11.1
- MOL: "O=C(CCS(=O)(=O)c1ccccc1)Nc1nc2c(s1)CCCC2"
  MEASUREMENT UNIT: "%"
  inhibition: 51.3
- MOL: "O=c1ccn([C@@H]2O[C@H](CNS(=O)(=O)c3cc4ccccc4s3)[C@@H](O)[C@H]2O)c(=O)[nH]1"
  MEASUREMENT UNIT: "%"
  inhibition: 78.9
- MOL: "Clc1ccc2nc(-c3ccccc3)nc(C(Cl)Cl)c2c1"
  MEASUREMENT UNIT: "%"
  inhibition: 32.4
- MOL: "O=C(C[C@H]1CC[C@H]2[C@@H](COC[C@@H](O)CN2CCC(F)(F)F)O1)NCc1ccc2c(c1)OCO2"
  MEASUREMENT UNIT: "%"
  inhibition: -15.5

====

PROCEDURE TEXT: PAX8 transcriptional activity inhibition in RMG-I – RMG-I cells, luciferase, single concentration, primary screen (AID 652154);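 further: luciferase light reporting Pax8 driven TPO promoter activity; plate controls were median of neutral control wells for no effect and mitoxantrone controls for full effect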
SETTINGS: RMG-I TPO-luciferase reporter, SteadyGlo, 24 h; at 12.6 µM; active compounds read high
In all, about 360,000 compounds went through this assay and about 4,200 (1.2%) were called active. The full list was thinned out, with actives kept by preference.

- MOLECULE: "C[C@@H]1CCCCO[C@H](CN(C)C(=O)Nc2ccccc2)[C@H](C)CN([C@H](C)CO)C(=O)c2cc(NC(=O)Nc3ccccc3)ccc2O1"
  MEASUREMENT UNIT: "%"
  inhibition: 10.5
- MOLECULE: "CC(C)C(C)NC(=O)COc1nc2ccccc2nc1N(C)C1CCCCC1 (stereo not given)"
  MEASUREMENT UNIT: "%"
  inhibition: 0.996
- MOLECULE: "C[C@H]1CN([C@@H](C)CO)C(=O)c2cccc(NC(=O)Nc3ccc(C(F)(F)F)cc3)c2O[C@H]1CN(C)C(=O)NC1CCCCC1"
  MEASUREMENT UNIT: "%"
  inhibition: 92.2
- MOLECULE: "CC(C)NC(=O)Nc1ccc2c(c1)C(=O)N([C@@H](C)CO)C[C@@H](C)[C@@H](CN(C)C(=O)Nc1ccc(C(F)(F)F)cc1)OCCCC[C@H](C)O2"
  MEASUREMENT UNIT: "%"
  inhibition: -21.5
- MOLECULE: "O=C(Nc1ccccc1F)N1CC(=O)N2[C@@H](CO)[C@H](c3ccc(C#CC4CCCC4)cc3)[C@@H]2C1"
  MEASUREMENT UNIT: "%"
  inhibition: 11.2
- MOLECULE: "C[C@@H]1CCCCO[C@@H](CN(C)C(=O)C2CCCCC2)[C@H](C)CN([C@H](C)CO)C(=O)c2cc(NC(=O)Cc3ccccc3)ccc2O1"
  MEASUREMENT UNIT: "%"
  inhibition: -7.3
- MOLECULE: "CCNC(=O)C[C@H]1CC[C@@H]2[C@H](COC[C@H](O)CN2S(=O)(=O)c2ccc(Oc3ccccc3)cc2)O1"
  MEASUREMENT UNIT: "%"
  inhibition: -12.7
- MOLECULE: "COc1ccccc1NC(=O)N1CC(=O)N2[C@@H](CO)[C@H](c3ccc(C#CC4CC4)cc3)[C@@H]2C1"
  MEASUREMENT UNIT: "%"
  inhibition: -15.3
- MOLECULE: "O=C(c1ccc(F)cc1)N1CC(=O)N2[C@H](C1)[C@@H](c1ccc(C#CC3CC3)cc1)[C@@H]2CO"
  MEASUREMENT UNIT: "%"
  inhibition: 27.2
- MOLECULE: "O=C(C1CC1)N1CCCCN2[C@H](C1)[C@@H](c1ccc(-c3cccc(F)c3)cc1)[C@@H]2CO"
  MEASUREMENT UNIT: "%"
  inhibition: 4.79
- MOLECULE: "C[C@@H]1CN([C@@H](C)CO)C(=O)c2cc(NC(=O)Nc3ccc(C(F)(F)F)cc3)ccc2O[C@@H](C)CCCCO[C@H]1CN(C)C(=O)c1ccccc1"
  MEASUREMENT UNIT: "%"
  inhibition: 84.4
- MOLECULE: "COc1ccccc1NC(=O)N1CCCCN2[C@H](CO)[C@H](c3ccc(C#CC4CC4)cc3)[C@@H]2C1"
  MEASUREMENT UNIT: "%"
  inhibition: 8.7
- MOLECULE: "CC(C)NC(=O)Nc1ccc2c(c1)C(=O)N([C@@H](C)CO)C[C@H](C)[C@H](CN(C)C(=O)c1ccccc1)OCCCC[C@@H](C)O2"
  MEASUREMENT UNIT: "%"
  inhibition: 3.59
- MOLECULE: "CO[C@H]1CN(C)C(=O)c2ccc(NC(=O)Nc3c(C)noc3C)cc2OC[C@@H](C)NC[C@H]1C"
  MEASUREMENT UNIT: "%"
  inhibition: -5.2
- MOLECULE: "CCC(=O)N(C)C[C@@H]1Oc2ncc(C#C[C@H](C)O)cc2C(=O)N([C@@H](C)CO)C[C@@H]1C"
  MEASUREMENT UNIT: "%"
  inhibition: -26.1

====

PROCEDURE TEXT: PAX8 transcriptional activity inhibition in RMG-I – RMG-I cells, luciferase, single concentration, primary screen (AID 652154);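 further: luciferase light reporting Pax8 driven TPO promoter activity; plate controls were median of neutral control wells for no effect and mitoxantrone controls for full effect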
SETTINGS: RMG-I TPO-luciferase reporter, SteadyGlo, 24 h; at 12.6 µM; active compounds read high
About 4,200 (1.2%) of roughly 360,000 compounds were called active. The list comes from a sample in which actives are over-represented; it also holds close analogues and randomly drawn compounds.
Answer 0 (no) if inhibition is under 40%, and 1 (yes) if it is 40% or more.

- MOL: "CO[C@H]1O[C@H](CO)[C@@H](OC(=O)Nc2ccc(C(F)(F)F)cc2)[C@H](OC(=O)Nc2ccc3c(c2)OCO3)[C@H]1OC(=O)Nc1ccc2c(c1)OCO2"
  CLASS ASSIGNMENT: "1 (yes)"
- MOL: "CO[C@H]1O[C@H](CO)[C@@H](OC(=O)Nc2ccccc2)[C@H](OC(=O)Nc2ccc3c(c2)OCO3)[C@H]1OC(=O)Nc1ccc2c(c1)OCO2"
  CLASS ASSIGNMENT: "0 (no)"
- MOL: "CNC(=O)C[C@H]1CC[C@H]2[C@H](COc3ccc(NC(=O)c4cc(C)on4)cc3C(=O)N2C)O1"
  CLASS ASSIGNMENT: "1 (yes)"
- MOL: "CO[C@H]1O[C@H](CO)[C@@H](OC(=O)Nc2ccccc2-c2ccccc2)[C@H](OC(=O)Nc2ccccc2)[C@H]1OC(=O)Nc1ccccc1"
  CLASS ASSIGNMENT: "1 (yes)"
- MOL: "COc1ccc(NC(=O)Nc2ccc3c(c2)C(=O)N([C@H](C)CO)C[C@H](C)[C@@H](CN(C)C(=O)NC2CCCCC2)OCCCC[C@@H](C)O3)cc1"
  CLASS ASSIGNMENT: "0 (no)"
- MOL: "CCc1cccc(NC(=O)O[C@H]2[C@H](OC(=O)Nc3ccccc3-c3ccccc3)[C@H](OC(=O)Nc3ccccc3-c3ccccc3)[C@@H](OC)O[C@@H]2CO)c1"
  CLASS ASSIGNMENT: "1 (yes)"
